Tested on: HEK-293T
test method notes: Incucyte cell viability with HEK293T; further: unitless GR value; below 1 slowed growth and below 0 cell loss
Assay type: toxicity, cell-based
measurement parameters: human, 6 h, 10 µM, compound concentration 10 uM, replicate number 2
Measured Growth Rate values are reported for all entries that follow.

smiles code | Growth Rate
c1ccc2nc(N3CCNCC3)ccc2c1 | 0.5
Oc1c(CN2CCCC2)cc(COCc2ccccc2)c2cccnc12 | 0.05
CCOC(=O)/N=C(\N)c1ccc(OCc2cccc(COc3ccc(C(C)(C)c4ccc(OC(=O)OCC)cc4)cc3)c2)cc1 | -0.42
CC[C@H](NC(=O)[C@H](C)NC)C(=O)N1C[C@@H](O)C[C@H]1Cc1c(-c2[nH]c3cc(F)ccc3c2C[C@@H]2C[C@H](O)CN2C(=O)[C@H](CC)NC(=O)[C@H](C)NC)[nH]c2cc(F)ccc12 | 0.87

---

System: U2OS
test method notes: Incucyte cell viability with U2OS; further: unitless GR value; below 1 slowed growth and below 0 cell loss
Format: toxicity, cell-based
measurement parameters: human, 12 h, 10 µM, compound concentration 10 uM, replicate number 2

compound | Growth Rate
Cl.Cl.N=C(N)NCCC[C@H](NC(=O)CC1(CC(=O)N2CCN(C3c4ccccc4NC(=O)c4ccccc43)CC2)CCCC1)C(=O)NCCn1c(=O)n(-c2ccccc2)n(-c2ccccc2)c1=O (stereo partly drawn) | 0.78
COc1cc(C(=O)O)ncc1C#Cc1ccccc1NS(=O)(=O)c1cccc2c(N(C)C)ccnc12 | 0.75
CN(C)C(=O)Cn1cc(-c2nc([C@@](C)(c3ccc(-c4cnc(N)nc4)cc3)C3CC3)no2)cn1 | 0.87
CN1CC(=O)N(C)c2cnc(Nc3ccc(NC(=O)Nc4cccc(C(=O)O)c4)cc3)nc21 | 0.75
Cn1ncnc1COc1nn2c(-c3cc(F)ccc3F)nnc2cc1C(C)(C)C | 0.78
CN[C@@H]1CC[C@@H](c2ccc(Cl)c(Cl)c2)c2ccccc21.Cl | 0.04
CCC(=O)Nc1cc(Nc2cc(NC3CC3)n3ncc(C#N)c3n2)ccc1C | 0.52
CC(C)Oc1ccc(-c2cnc3c(-c4ccnc5ccccc45)cnn3c2)cc1 | 0.74

---

Tested on: Fibroblast
test method notes: Incucyte cell viability with human fibroblast; further: unitless GR value; below 1 slowed growth and below 0 cell loss
Assay type: toxicity, cell-based
measurement parameters: 12 h, 10 µM, compound concentration 10 uM, replicate number 1
recorded metric: Growth Rate

compound | tested system | recorded metric | reading
Cc1ccc(NS(=O)(=O)c2ccc3c(c2)C2C=CCC2C(c2ccc(C(=O)O)cc2)N3)cc1C (stereo unspecified) | Fibroblast | Growth Rate | 0.86
Cc1ccc(-c2cn3nc(C(=O)NC4(c5ccc(F)cc5)CN(C)C4)c(C(C)C)c3c(=O)[nH]2)cc1C | Fibroblast | Growth Rate | 0.22
COCCNc1cc(NC(=O)N2CCCc3cc(CN4CCN(C)CC4=O)c(C=O)nc32)ncc1C#N | Fibroblast | Growth Rate | -1
N[C@@H]1CCCC[C@H]1Oc1ccc2ncc(-c3cc4ccccc4o3)n2n1 | Fibroblast | Growth Rate | -0.57
CC(C)(O)c1ccc2c(c1)ncn2-c1cccc(-c2ccccc2C#N)c1 | Fibroblast | Growth Rate | 0.43
COc1ccc(-c2cc3c(C)nc(N)nc3n([C@H]3CC[C@H](OCCO)CC3)c2=O)cn1 | Fibroblast | Growth Rate | 0.03
CO[C@H](C)CN1CC[C@@]2(C)c3ccc(O)cc3C[C@@H]1C2(C)C.Cl | Fibroblast | Growth Rate | 0.6
O=C1NCc2ccc3c(-c4cccc(Cl)c4)c[nH]c3c21 | Fibroblast | Growth Rate | -1
CCOC(=O)C1=C[C@]2(CC)CCCN3CCc4c(n1c1ccccc41)[C@@H]32 | Fibroblast | Growth Rate | -1
CCOC(=O)c1ccc(CN(Cc2ccc(-c3cccc(S(C)(=O)=O)c3)cc2)S(=O)(=O)c2c(C)cc(C)cc2C)o1 | Fibroblast | Growth Rate | 0.59
COc1ncc2cc(C(=O)Nc3cc(C(=O)NCc4cccc(Cl)c4)ccc3Cl)c(=O)[nH]c2n1 | Fibroblast | Growth Rate | -0.98
COc1cc2ncnc(Nc3ccc(Oc4ccccc4)cc3C)c2cc1OC.Cl | Fibroblast | Growth Rate | -1
CN(C)C(=O)Cn1cc(-c2nc([C@@](C)(c3ccc(-c4cnc(N)nc4)cc3)C3CC3)no2)cn1 | Fibroblast | Growth Rate | 0.51
CCC(F)(F)c1cc(N2CCC(S(C)(=O)=O)CC2)nc2sc(C(N)=O)c(N)c12 | Fibroblast | Growth Rate | 0.8
Cn1cc(-c2ccc(N(C(=O)NCc3ccccc3)[C@H]3CC[C@H](Nc4ccc(C#N)cn4)CC3)cc2)ccc1=O | Fibroblast | Growth Rate | 0.45
OC(CN1CCC(Cc2ccc(F)cc2)CC1)c1ccc(Cl)cc1 (stereo unspecified) | Fibroblast | Growth Rate | -0.13
c1ccc2c(-c3coc4cc(-c5ccc(N6CCNCC6)cc5)cnc34)ccnc2c1 | Fibroblast | Growth Rate | 0.93
CC(C)(C#N)c1cc(Cn2cncn2)cc(C(C)(C)C#N)c1 | Fibroblast | Growth Rate | -1
C=CC(=O)Nc1cccc(C)c1Nc1ncc2cc(-c3c(Cl)c(OC)cc(OC)c3Cl)ccc2n1 | Fibroblast | Growth Rate | 0.12
CNc1nc(-c2cc(C(=O)N3CCN(Cc4ccc(Cl)cc4)CC3)c(Cl)cn2)cs1 | Fibroblast | Growth Rate | -0.19
COc1ccccc1Nc1nc(-c2nn(Cc3c(F)cc(OCCCO)cc3F)c3ccccc23)ncc1OC | Fibroblast | Growth Rate | 0.59
O=S(=O)(Nc1nnc2cc(OCC34CC5CC(CC(C5)C3)C4)c(C3CC3)cn12)C1CC1 | Fibroblast | Growth Rate | -1
COc1cc(F)ccc1-c1ncnc(Nc2cccc(C[S@](C)(=N)=O)c2)n1 | Fibroblast | Growth Rate | -0.04
CCc1ncnc(N2CCN(C(C)=O)CC2)c1C#Cc1ccc(N)nc1.Cl.Cl | Fibroblast | Growth Rate | 0.68
CC(=O)N(CCN(C)C)c1ccc(N/C(=C2\C(=O)Nc3cc(Cl)ccc32)c2ccccc2)cn1 | Fibroblast | Growth Rate | -0.65
COc1cc(/C=C(\C#N)C(=O)Nc2nnc(C(F)(F)F)s2)ccc1OCc1ccc(C(F)(F)F)cc1C(F)(F)F | Fibroblast | Growth Rate | -0.69
Cc1cn(CCN2CCN(c3ccccc3-c3cc(C#N)cc(C(=O)NCCCN4CCCC4)c3)CC2)c2ccccc12 | Fibroblast | Growth Rate | -0.74
CCOC(=O)C1Cc2ccccc2CN1C(=O)c1ccc(SC)s1 (stereo unspecified) | Fibroblast | Growth Rate | 0.66
COc1cc(CN(CCN)C(=O)N[C@@H](C)c2ccccc2)ccc1OCc1ccccc1.Cl | Fibroblast | Growth Rate | 0.94
O=C(NCC1(N2CCN(c3ccccc3)CC2)CCOCC1)c1cccnc1Sc1ccccc1 | Fibroblast | Growth Rate | -1
COc1cc(O)c(C(CC(=O)N2C[C@H](C)C[C@H](C)C2)c2ccc3c(c2)OCO3)c(OC)c1 (stereo partly specified) | Fibroblast | Growth Rate | 0.5
CN[C@@H](C)C(=O)N[C@H](C(=O)N1CCC[C@H]1C(=O)N[C@H]1c2ccccc2C[C@H]1OCC#CC#CCO[C@@H]1Cc2ccccc2[C@@H]1NC(=O)[C@@H]1CCCN1C(=O)[C@@H](NC(=O)[C@H](C)NC)C1CCCCC1)C1CCCCC1 | Fibroblast | Growth Rate | 0.87
NC1=NC(=O)/C(=C2\CCNC(=O)c3[nH]c4ccccc4c32)N1 | Fibroblast | Growth Rate | -1
O=C(N[C@@H]1C2CCN(CC2)[C@H]1Cc1cccnc1)c1cc2ccccc2o1 | Fibroblast | Growth Rate | -0.73
COc1ccc(S(=O)(=O)N2CCOCC2)cc1Nc1ccc2c(n1)N(C1CCN(C)CC1)[C@H](C)C(=O)N2C | Fibroblast | Growth Rate | 0.73
CNc1ncc2cc(-c3ccc(-c4ncccc4F)cc3Cl)c(=O)n(C[C@H]3OC[C@H](N)CO3)c2n1 | Fibroblast | Growth Rate | 0.37

---

Tested on: U2OS
test method notes: Incucyte cell viability with U2OS; further: unitless GR value; below 1 slowed growth and below 0 cell loss
Assay type: toxicity, cell-based
measurement parameters: human, 12 h, 10 µM, compound concentration 10 uM, replicate number 1
Lab note: anything with Growth Rate at or over 0.9 counts as Met; the rest go in Not met.

compound | label
NC1=NC(=O)/C(=C2\CCNC(=O)c3[nH]c4ccccc4c32)N1 | Not met
C=CC[C@@H]1/C=C(\C)C[C@H](C)C[C@H](OC)[C@H]2O[C@@](O)(C(=O)C(=O)N3CCCC[C@H]3C(=O)O[C@H](/C(C)=C/[C@@H]3CC[C@@H](O)[C@H](OC)C3)[C@H](C)[C@@H](O)CC1=O)[C@H](C)C[C@@H]2OC.O | Not met
CCCCCCCCCCCCCC(=O)O[C@@H]1[C@@H](C)[C@@]2(O)[C@@H](C=C(CO)C[C@]3(O)C(=O)C(C)=C[C@@H]23)[C@@H]2C(C)(C)[C@]12OC(C)=O [PHORBOL MYRISTATE ACETATE] | Met
C[C@H](NC(=O)c1cc(Cl)ccc1Oc1ccc(F)cc1)c1ccc(C(=O)O)cc1 | Met
COc1ccc(-c2csc(NC(=O)[C@H]3CCCCN3S(=O)(=O)c3ccc(C)cc3)n2)cc1 | Met
CCC(=O)O[C@]1(C(=O)CCl)[C@@H](C)C[C@H]2[C@@H]3CCC4=CC(=O)C=C[C@]4(C)[C@@]3(F)[C@@H](O)C[C@@]21C [CLOBETASOL PROPIONATE] | Not met
